Kindly state potency estimated from few doses for each of the entries shown.
test system: AURKA; design: species or system human, MV4-11 + K-562 + COLO205 + SK-N-BE2 + OVCAR-8; details: read-out: apparent Kd; compound concentrations:100 nM and 1000 nM (sheet 'Samples'); n = 1
Write the quantity with the unit trailing the number.

[ask] Identify the reported potency estimated from few doses for the following entry. CN1CCN(C(=O)c2ccc(NC(=O)Nc3ccc(N(C)c4ccnc(Nc5ccc(CS(C)(=O)=O)cc5)n4)cc3)cc2)CC1.Cl [GW830263A]
[reply] 303 nM

[ask] Identify the reported potency estimated from few doses for the following entry. CN(C)CCNC(=O)Nc1ccc(N(C)c2ccnc(Nc3ccc(CS(C)(=O)=O)cc3)n2)cc1.Cl [GW830900A]
[reply] 893 nM

[ask] Identify the reported potency estimated from few doses for the following entry. COc1ccc(O)c(C(=O)c2ccc(C(=O)O[C@@H]3CCCNC[C@H]3NC(=O)c3ccncc3)cc2)c1F.Cl
[reply] 693 nM

[ask] Identify the reported potency estimated from few doses for the following entry. CNC(=O)c1ccccc1Nc1nc(Nc2ccc(N3CCOCC3)cc2)ncc1Cl.Cl [GSK1576028A]
[reply] 11 nM
